Entries and their IC50 values follow.
SYSTEM: JAK3 enzyme (Homo sapiens (Human))
Sequence (P52333 whole entry, species assumed): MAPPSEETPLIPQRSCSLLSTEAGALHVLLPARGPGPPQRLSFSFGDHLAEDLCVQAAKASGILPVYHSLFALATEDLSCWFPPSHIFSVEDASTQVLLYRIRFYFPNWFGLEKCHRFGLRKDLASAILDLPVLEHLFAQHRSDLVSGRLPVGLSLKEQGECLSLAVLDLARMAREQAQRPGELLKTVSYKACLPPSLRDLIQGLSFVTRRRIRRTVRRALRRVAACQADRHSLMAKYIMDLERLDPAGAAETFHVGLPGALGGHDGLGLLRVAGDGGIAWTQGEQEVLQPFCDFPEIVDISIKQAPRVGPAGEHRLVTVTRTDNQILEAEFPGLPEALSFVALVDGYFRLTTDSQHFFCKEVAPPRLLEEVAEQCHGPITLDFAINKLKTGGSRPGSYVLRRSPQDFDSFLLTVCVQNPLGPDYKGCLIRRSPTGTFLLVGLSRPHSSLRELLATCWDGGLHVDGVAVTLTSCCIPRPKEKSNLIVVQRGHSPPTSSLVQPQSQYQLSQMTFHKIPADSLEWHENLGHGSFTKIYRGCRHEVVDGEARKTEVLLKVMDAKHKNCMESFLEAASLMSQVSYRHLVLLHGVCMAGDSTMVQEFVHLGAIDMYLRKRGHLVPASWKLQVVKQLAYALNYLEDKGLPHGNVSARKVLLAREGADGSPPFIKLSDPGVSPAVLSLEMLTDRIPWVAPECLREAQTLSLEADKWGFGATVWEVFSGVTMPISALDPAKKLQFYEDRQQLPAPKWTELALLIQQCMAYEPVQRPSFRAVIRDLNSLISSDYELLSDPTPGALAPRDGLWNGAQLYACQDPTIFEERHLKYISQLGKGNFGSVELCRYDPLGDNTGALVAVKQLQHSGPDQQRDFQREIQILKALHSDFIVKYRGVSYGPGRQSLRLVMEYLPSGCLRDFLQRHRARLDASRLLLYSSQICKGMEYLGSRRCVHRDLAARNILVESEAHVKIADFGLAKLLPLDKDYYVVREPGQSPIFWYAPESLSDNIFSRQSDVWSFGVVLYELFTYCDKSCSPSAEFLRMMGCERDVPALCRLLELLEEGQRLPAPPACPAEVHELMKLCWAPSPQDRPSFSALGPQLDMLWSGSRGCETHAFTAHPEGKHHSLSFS
EXPERIMENT: JAK Caliper enzyme assay at 4 μM ATP
Type: biochemical
MEASUREMENT_SETUP: read-out: JAK3 (4 μM ATP) IC50

Given the entry `C=CC(=O)N1C[C@H](Nc2ncnc3[nH]ccc23)CC[C@H]1CC` , report its measured IC50.
265 nM

Given the entry `C=CC(=O)N1C[C@@H](Nc2ncnc3[nH]ccc23)[C@@H]2CC[C@H]1C2` , report its measured IC50.
602 nM

Given the entry `O=C(C1=CCC1)N1CC[C@@H]2CCN(c3ncnc4[nH]ccc34)[C@@H]2C1` , report its measured IC50.
149 nM

Given the entry `C=CC(=O)N1C[C@H](Nc2ncnc3[nH]ccc23)[C@H]2CC[C@@H]1C2` , report its measured IC50.
190 nM

Given the entry `C=CC(=O)N1CCC(Nc2cnc3[nH]cc(C(=O)N[C@@H]4C[C@H]4C(F)(F)F)c3n2)CC1` , report its measured IC50.
0.2 nM

Given the entry `C/C=C/C(=O)N1CC[C@@H]2CCN(c3ncnc4[nH]ccc34)[C@@H]2C1` , report its measured IC50.
727 nM
